- tested_system: Tyrosine-protein kinase Fer (Homo sapiens)
- settings: at 1 µM
- Description: GSK_PKIS: FER mean inhibition at 1 uM [Nanosyn]
I'd appreciate it if you could supply inhibition values for the items below.
One number for each entry, in %.

COc1ccc2cc(-c3c(-c4ccncc4)nc(-c4ccc([S+](C)[O-])cc4C)n3C)ccc2c1 (stereo not given) | 3.2
c1ccc(Oc2ccc(Nc3ncc(-c4ccccc4)o3)cc2)cc1 | 1.64
NS(=O)(=O)c1ccc(N/N=C2\C(=O)Nc3ccc(-c4cnco4)cc32)cc1 | 0.94
CN(C)CCCNc1nccc(-c2c(-c3ccc(F)cc3)nn3cc(C(F)(F)F)ccc23)n1 | 1.37
O=C(Nc1n[nH]c2nc(-c3ccc(O)cc3)c(Br)cc12)C1CC1 | 7.42
Cc1ccc(C(=O)NC(C)C)cc1-c1ccc(C(=O)NCC2CC2)cc1 | -1.61
CNC(=O)c1cncc(/C=C/c2c(C)cccc2C)c1 | 3.37
Cc1ccc(C(=O)NC2CCC2)cc1-c1ccc(C(=O)NCC2CC2)cc1 | 2.82
C[C@@H](Oc1cc(-n2cnc3ccc(OCC4CCN(C)CC4)cc32)sc1C(N)=O)c1ccccc1Cl | 7.17

query: System Tyrosine-protein kinase Fer (Homo sapiens). Read-out inhibition. Item COc1cc2ncn(-c3cc(OCc4cccs4)c(C(N)=O)s3)c2cc1OC . Report value.
result: 12.9

###

- tested_system: Insulin receptor (Homo sapiens);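 also: reported values are averages of replicate inhibition measurements against the insulin receptor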
- settings: at 0.1 µM
Consider the following molecules; for each one, report its inhibition.
Answers are plain numbers, in %.

O=C1Nc2ccccc2/C1=C/Nc1ccc(-n2cncn2)cc1 | 9.38
COc1cc(N2CCN(C(C)C)CC2)ccc1Nc1nc(Nc2ccc(F)cc2C(=O)NC[C@@H](O)CO)c2cc[nH]c2n1 | 110
c1ccc(Oc2ccc(Nc3ncc(-c4ccccc4)o3)cc2)cc1 | 4.11
Fc1ccc(-c2ncn(C3CCNCC3)c2-c2ccnc(Oc3ccc(Oc4ccccc4)cc3)n2)cc1 | 7.04
Fc1ccc(-c2ncn(C3CCNCC3)c2-c2ccnc(Oc3ccc4c(c3)OCO4)n2)cc1 | 2.85

Hi team, please reply with inhibition for each item in this list.
1. COc1cccc(/C=N/Nc2ncnc3c2cnn3-c2cccc(OC)c2)c1
2. NC(=O)c1cc(-c2ccncc2)cc(-c2ccccc2)c1N

result:
[6.27, 6.28]

I would be grateful if you could provide inhibition for each of the following entries.
1. NC(=O)Cc1ccccc1Oc1nccc(-c2c(-c3ccc(F)cc3)ncn2C2CCNCC2)n1
2. CN(C)CCCNc1nccc(-c2c(-c3ccc(F)cc3)nn3cc(C(F)(F)F)ccc23)n1
3. C#Cc1cccc(Nc2ncnc3ccc(OCCCCNCCS(C)(=O)=O)cc23)c1

result:
5.96
0.53
8.82

Hey, can you go through the list below and give me inhibition for every item?
1. CS(=O)(=O)CCNCc1ccc(-c2ccc3ncnc(Nc4ccc(OCc5ccccc5)c(Br)c4)c3c2)o1
2. NC(=O)c1cc(-c2ccc(F)cc2)cc(-c2ccncc2)c1N
3. Cc1ccc(C(=O)NC(C)C)cc1-c1ccc(C(=O)NCC2CC2)cc1
4. Nc1nccc(-c2c(-c3ccc(F)cc3)ncn2C2CCC(O)CC2)n1 (stereo unspecified)
5. Fc1ccc(-c2ncn(CCCN3CCOCC3)c2-c2ccncc2)cc1

result:
1. 2.87
2. 5.25
3. -1.9
4. 0.89
5. -0.34

###

- tested_system: Activated CDC42 kinase 1 (Homo sapiens);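 also: values are mean inhibition of TNK2, from the GSK PKIS screening dataset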
- settings: at 0.1 µM
metric: inhibition (%)
Numbers only, in %.

NC(=O)c1ccc(Oc2nccc(-c3c(-c4ccc(F)cc4)ncn3C3CCNCC3)n2)cc1 | 0.55
CCc1nccc2c1nc(-c1nonc1N)n2CC | -0.52
COc1ccc2cc(-c3c(-c4ccncc4)nc(-c4ccc([S+](C)[O-])cc4C)n3C)ccc2c1 (stereo not given) | -0.21
COc1cc(C)c(N(C)C(=O)CN(C)C)cc1Nc1nc(Nc2cccc(F)c2C(N)=O)c2cc[nH]c2n1 | 0.62
O=C(Nc1n[nH]c2cc(-c3ccccc3)ccc12)C1CC1 | 0.74

Hi! Can you tell me inhibition for each of these molecules?
1. COc1cc(Nc2ncc3c(C)nc(-c4cccc(C(F)(F)F)c4)n3n2)cc(OC)c1OC
2. O=C1NC(=O)C(c2cccc(Cl)c2)=C1Nc1ccc(Cl)c(C(=O)O)c1
3. COc1ccc(C2=C(N3CCc4ccccc43)C(=O)NC2=O)cc1
4. COC(=O)Nc1nc2ccc(Sc3ccc(NC(=O)Nc4cc(C(F)(F)F)ccc4F)cc3)cc2[nH]1

result:
1: 0.75; 2: 0.78; 3: 1.51; 4: 0.06

###

- tested_system: cGMP-dependent protein kinase 2 (Homo sapiens);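 also: mean inhibition of PRKG2 from the GSK PKIS screen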
- Sequence (whole entry): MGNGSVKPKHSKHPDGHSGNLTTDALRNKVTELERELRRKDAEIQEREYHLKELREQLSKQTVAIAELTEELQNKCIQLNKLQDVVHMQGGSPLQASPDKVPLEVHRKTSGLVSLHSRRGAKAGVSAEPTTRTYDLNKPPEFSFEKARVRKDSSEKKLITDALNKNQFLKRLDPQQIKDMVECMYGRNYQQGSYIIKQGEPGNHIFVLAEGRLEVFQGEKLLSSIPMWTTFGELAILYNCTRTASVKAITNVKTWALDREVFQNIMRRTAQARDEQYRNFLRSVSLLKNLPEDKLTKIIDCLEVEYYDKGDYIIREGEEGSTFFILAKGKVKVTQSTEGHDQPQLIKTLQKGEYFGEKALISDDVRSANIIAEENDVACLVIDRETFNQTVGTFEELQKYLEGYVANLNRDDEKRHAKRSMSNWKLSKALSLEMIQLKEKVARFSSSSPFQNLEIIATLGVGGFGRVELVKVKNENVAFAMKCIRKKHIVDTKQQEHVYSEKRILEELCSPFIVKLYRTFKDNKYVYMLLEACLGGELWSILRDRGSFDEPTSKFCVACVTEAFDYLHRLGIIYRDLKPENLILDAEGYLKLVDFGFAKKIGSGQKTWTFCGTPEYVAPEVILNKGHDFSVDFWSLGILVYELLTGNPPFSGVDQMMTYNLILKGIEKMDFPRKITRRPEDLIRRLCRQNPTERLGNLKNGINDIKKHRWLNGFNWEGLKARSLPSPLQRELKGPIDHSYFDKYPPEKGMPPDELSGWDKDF
- settings: at 1 µM
Hi there, I'd appreciate the recorded inhibition for every entry that follows.
A complete answer gives the number followed by the unit.

Sample answers from the record:
Fc1ccc(-c2ncn(C3CCNCC3)c2-c2ccnc(Oc3ccc(Oc4ccccc4)cc3)n2)cc1 | 4.62%
NS(=O)(=O)c1ccc(Nc2cc(-c3ccc(O)c(F)c3)n[nH]2)cc1 | 0.01%

Give inhibition for all molecules that follow.
1. COc1cc2ncn(-c3cc(OCc4cccs4)c(C(N)=O)s3)c2cc1OC
2. O=C1NC(=O)C(c2cccc(Cl)c2)=C1Nc1ccc(Cl)c(C(=O)O)c1
3. COc1cc2ncn(-c3cc(OCCc4ccccc4)c(C(N)=O)s3)c2cc1OC
4. N#Cc1ccc(Oc2nccc(-c3c(-c4ccc(F)cc4)ncn3C3CCNCC3)n2)cc1
5. Clc1ccc(CNc2nccc(-c3cnn4ncccc34)n2)cc1

result:
["6.83%", "1.58%", "2.13%", "2.92%", "3.68%"]

###

- tested_system: Tyrosine-protein kinase receptor UFO (Homo sapiens) (UniProt P30530)
- Sequence (P30530 whole entry): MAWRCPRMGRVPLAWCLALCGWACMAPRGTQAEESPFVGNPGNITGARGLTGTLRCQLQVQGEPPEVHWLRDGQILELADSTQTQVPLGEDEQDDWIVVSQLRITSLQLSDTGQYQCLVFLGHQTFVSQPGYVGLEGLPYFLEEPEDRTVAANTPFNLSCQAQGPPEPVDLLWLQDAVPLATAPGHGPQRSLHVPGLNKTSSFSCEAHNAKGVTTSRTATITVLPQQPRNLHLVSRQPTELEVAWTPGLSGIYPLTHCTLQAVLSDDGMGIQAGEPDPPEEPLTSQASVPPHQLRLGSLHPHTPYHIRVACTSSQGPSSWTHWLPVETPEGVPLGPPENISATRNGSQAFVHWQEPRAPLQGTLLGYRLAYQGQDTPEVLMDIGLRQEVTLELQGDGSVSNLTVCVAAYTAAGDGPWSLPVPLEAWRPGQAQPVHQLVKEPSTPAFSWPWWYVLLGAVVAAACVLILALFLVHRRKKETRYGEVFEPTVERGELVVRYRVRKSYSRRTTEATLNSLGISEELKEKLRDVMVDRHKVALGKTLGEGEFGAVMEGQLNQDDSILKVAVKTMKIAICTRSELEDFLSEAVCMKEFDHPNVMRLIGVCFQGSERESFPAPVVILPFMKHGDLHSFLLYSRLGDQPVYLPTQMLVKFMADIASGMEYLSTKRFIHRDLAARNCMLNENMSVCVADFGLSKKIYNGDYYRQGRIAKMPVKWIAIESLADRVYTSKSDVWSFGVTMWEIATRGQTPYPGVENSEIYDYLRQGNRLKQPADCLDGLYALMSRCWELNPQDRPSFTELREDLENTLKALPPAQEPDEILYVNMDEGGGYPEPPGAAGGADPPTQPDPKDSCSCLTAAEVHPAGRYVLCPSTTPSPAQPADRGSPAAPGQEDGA
- settings: at 1 µM
- Description: GSK_PKIS: AXL mean inhibition at 1 uM [Nanosyn]
metric: inhibition (%)
Give bare numbers, in %.

Example entries begin here.
COc1cc(N2CCN(C(C)C)CC2)ccc1Nc1nc(Nc2ccc(F)cc2C(=O)NC[C@@H](O)CO)c2cc[nH]c2n1 | 7.75
NS(=O)(=O)c1ccc(N/N=C2\C(=O)Nc3ccc(-c4cnco4)cc32)cc1 | -1.27
NC(=O)c1cc(-c2ccncc2)cc(-c2ccccc2)c1N | -6.8

Kindly give each listed record's inhibition.
1. CNC(=O)c1cncc(/C=C/c2c(C)cccc2C)c1
2. NCc1ccc(-n2c(-c3nonc3N)nc3cnccc32)cc1

result:
1. 3.27
2. -1.85

Each molecule below has a recorded value; state its inhibition.
1. c1ccc(Oc2ccc(Nc3ncc(-c4ccccc4)o3)cc2)cc1
2. FC(F)(F)c1cccc(Nc2nccc(-c3cnn4nc(-c5ccccc5)ccc34)n2)c1
3. NS(=O)(=O)c1ccc(Nc2cc(-c3ccc(O)c(F)c3)n[nH]2)cc1
4. COc1ccc(-c2ccc3c(NC(=O)C4CC4)n[nH]c3n2)cc1
5. CCc1nccc2c1nc(-c1nonc1N)n2CC
6. Nc1nccc(-c2c(-c3ccc(F)cc3)ncn2C2CCC(O)CC2)n1 (stereo unspecified)
7. Fc1ccc(-c2nc3n(c2-c2ccncc2)CCS3)cc1
8. Clc1ccc(CNc2nccc(-c3cnn4ncccc34)n2)cc1

result:
-0.31
-4.33
1.05
-2.35
2.17
6.29
-3.95
2.45

Please supply inhibition for each of the following items, keeping them in order.
1. CCC(=O)Nc1ccc(C)c(-c2ccc(C(=O)NCC3CC3)cc2)c1
2. COc1cc2ncn(-c3cc(OCc4ccccc4C(F)(F)F)c(C(C)=O)s3)c2cc1OC
3. CCc1cccc(CC)c1/C=C/c1cncc(C(=O)NC)c1
4. COc1cc2ncn(-c3cc(OCCc4ccccc4)c(C(N)=O)s3)c2cc1OC
5. C[C@@H](Oc1cc(-n2cnc3ccc(OCC4CCN(C)CC4)cc32)sc1C(N)=O)c1ccccc1Cl
6. O=C1NC(=O)C(c2cccc(Cl)c2)=C1Nc1ccc(Cl)c(C(=O)O)c1
7. COc1ccc2cc(-c3c(-c4ccncc4)nc(-c4ccc(S(C)(=O)=O)cc4C)n3C)ccc2c1

result:
1: -3.83; 2: -1.92; 3: -1.28; 4: -2.35; 5: 3.11; 6: -3.02; 7: -4.46

query: Identify measured inhibition corresponding to COc1cc(Nc2ncc3c(C)nc(-c4cccc(Oc5ccccc5)c4)n3n2)cc(OC)c1OC
result: 4.22
